Biological target: human PPARalpha (Homo sapiens)
Construct: amino acids S167–Y468
Sequence (Q07869 167-468): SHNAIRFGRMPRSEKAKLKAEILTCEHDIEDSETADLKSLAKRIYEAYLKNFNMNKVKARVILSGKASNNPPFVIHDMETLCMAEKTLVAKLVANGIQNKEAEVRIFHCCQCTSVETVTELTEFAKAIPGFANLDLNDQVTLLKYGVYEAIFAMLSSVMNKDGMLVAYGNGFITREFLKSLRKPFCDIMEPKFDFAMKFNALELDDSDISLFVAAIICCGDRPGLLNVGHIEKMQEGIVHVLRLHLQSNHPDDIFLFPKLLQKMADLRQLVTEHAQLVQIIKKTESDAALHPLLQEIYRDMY
Assay: Cellular PPARalpha assay (stably transfected HEK luciferase reporter cell line)
Settings: PPARalpha reporter cell line (HEK, GR-GAL4-humanPPARalpha-LBD)
Observable: EC50 (nM)

The cases that follow already have their EC50 on record.
Cc1ccc(-c2nc(CO[C@H]3CCC[C@@H](OCc4cccc(C)c4C(=O)O)C3)c(C)o2)o1 [Example 4]: 0.6
COc1cccc(-c2nc(CO[C@H]3CCC[C@@H](OCc4cccc(C)c4C(=O)O)C3)c(-c3ccccc3)o2)c1 [Example 12]: 34

A: Cc1cccc(CO[C@@H]2CCC[C@H](OCc3nc(-c4ccc5ccccc5c4)oc3C)C2)c1C(=O)O [Example 1]
B: Cc1ccc(-c2nc(CO[C@H]3CCC[C@@H](OCc4cccc(C)c4C(=O)O)C3)c(-c3ccccc3)o2)cc1 [Example 11]
*Q* Which of the two gives a bigger number for EC50: A or B ? Mark your answer with the label of the selected entry.
*A* B

* * *

Target: human PPARalpha (Homo sapiens, UniProt Q07869)
Construct: amino acids S167–Y468
Experiment: Cellular PPARalpha assay (stably transfected HEK luciferase reporter cell line)
Settings: PPARalpha reporter cell line (HEK, GR-GAL4-humanPPARalpha-LBD)
pEC50: −log10 of the molar value.
Observable: pEC50

COCCOc1cc(-c2nc(CO[C@H]3CCC[C@@H](OCc4cccc(C)c4C(=O)O)C3)c(C)o2)cc(C(F)(F)F)c1 [Example 10]: 9.52

1: Cc1cccc(CO[C@@H]2CCC[C@H](OCc3nc(-c4ccc5c(c4)OCCO5)oc3C)C2)c1C(=O)O [Example 3]
2: Cc1cccc(CO[C@@H]2CCC[C@H](OCc3coc(C4CCCCC4)n3)C2)c1C(=O)O [Example 13]
*Q* Min pEC50? 1 | 2 Return value: the label identifying the chosen record.
*A* 1

// provenance: patent US7160911B2
